Format: physicochemical
Conditions: SGF with pepsin, pH 1.5, 37° C., 0.5 mM; time 1 min
Readout: Condition 1 Conversion (%)
Lab book: enter the figure in %, no units written.

Q: Query: Condition 1 Conversion (%); subject: CO/N=C1\CC[C@@]2(c3ccc(OC)c(OC)c3)CCN(C)[C@H]2C1 [Compound 038]
Result: 0

Q: Okay, and COc1ccc([C@@]23CCC(=NNC(=O)Nc4cccc(O)c4)C[C@@H]2N(C)CC3)cc1OC [Compound 251] ?
Result: 6.91

Q: Okay, and CCCC1CO[C@]2(CC[C@@]3(c4ccc(OC)c(OC)c4)CCN(C)C3C2)O1 (stereo partly shown) [Compound 212] ?
Result: 0

Q: Okay, and COc1ccc([C@@]23CCC(=NNC(=O)CC[C@H](NC(=O)c4ccc(NCc5cnc6nc(N)nc(O)c6n5)cc4)C(=O)O)C[C@@H]2N(C)CC3)cc1OC [Compound 172] ?
Result: 100

Q: Okay, and COc1ccc([C@@]23CCC(OC(C)=O)=C[C@@H]2N(C)CC3)cc1OC [Compound 026] ?
Result: 0

Q: Okay, and COc1ccc([C@@]23CCC(OC(=O)c4ccccc4C)=C[C@@H]2N(C)CC3)cc1OC [Compound 298] ?
Result: 0

Q: Okay, and COc1ccc([C@@]23CCC(=NOC(C)(C)C)C[C@@H]2N(C)CC3)cc1OC [Compound 199] ?
Result: 0

====

Assay type: physicochemical
Settings: SGF with pepsin, pH 1.5, 37° C., 0.5 mM; time 1 h
Recorded measurements of Condition 1 Conversion (%), one per entry
Lab book: enter the figure in %, no units written.

COc1ccc([C@@]23CCC(=NNC(=O)c4ccncc4)C[C@@H]2N(C)CC3)cc1OC ... 100
COc1ccc([C@@]23CC/C(=N\NC(=O)NC[C@H]4CC[C@H](C(=O)O)CC4)C[C@@H]2N(C)CC3)cc1OC ... 100
COc1ccc([C@@]23CCC(=NNc4ncccc4C)C[C@@H]2N(C)CC3)cc1OC ... 16.09
COc1ccc([C@@]23CCC(=NNC(=O)C45CC6CC(CC(C6)C4)C5)C[C@@H]2N(C)CC3)cc1OC ... 100
COc1ccc([C@@]23CC/C(=N/OC45CC6CC(CC(C6)C4)C5)C[C@@H]2N(C)CC3)cc1OC [Compound 301] ... 0

Q: Query: Condition 1 Conversion (%); subject: `COc1ccc([C@@]23CCC(OC(=O)C4CC4)=C[C@@H]2N(C)CC3)cc1OC`
Result: 0

Q: Okay, and `COc1ccc([C@@]23CC/C(=N\NC(=O)NCCc4cccs4)C[C@@H]2N(C)CC3)cc1OC` ?
Result: 100

Q: Okay, and CCCC1CO[C@]2(CC[C@@]3(c4ccc(OC)c(OC)c4)CCN(C)C3C2)O1 (stereo partly drawn) ?
Result: 0

Q: Okay, and COc1ccc([C@@]23CCC(=NNC(=O)Nc4ccc(C(=O)O)cc4)C[C@@H]2N(C)CC3)cc1OC (racemic) ?
Result: 25

Q: Okay, and `COc1ccc([C@@]23CCC(=NOCc4ccccc4)C[C@@H]2N(C)CC3)cc1OC` ?
Result: 0

Q: Okay, and `COc1ccc([C@@]23CCC(OC(=O)CC(C)C)=C[C@@H]2N(C)CC3)cc1OC` ?
Result: 0

Q: Okay, and `COc1ccc([C@@]23CC/C(=N\NC(=O)Nc4ccccc4Cl)C[C@@H]2N(C)CC3)cc1OC` ?
Result: 96.5

Q: Okay, and `COc1ccc([C@@]23CCC(OC(=O)C(c4ccccc4)c4ccccc4)=C[C@@H]2N(C)CC3)cc1OC` ?
Result: 0

Q: Okay, and `COc1ccc([C@@]23CC/C(=N\NC(=O)c4cccnc4)C[C@@H]2N(C)CC3)cc1OC` ?
Result: 100

Q: Okay, and `COc1ccc([C@@]23CCC(=NNC(=O)c4ccc(F)cc4)C[C@@H]2N(C)CC3)cc1OC` ?
Result: 100

====

Assay type: physicochemical
Conditions: SGF with pepsin, pH 1.5, 37° C., 0.5 mM; time 4 h
Readout: Condition 1 Conversion (%)
Lab book: enter the figure in %, no units written.

The following compounds have reported results that may help.
COc1ccc([C@]23CCN(C)[C@H]2CC(OC)(OC)CC3)cc1OC (stereo in doubt) ... 100
COc1ccc([C@@]23CCC(=NNC(=O)Nc4cccc(O)c4)C[C@@H]2N(C)CC3)cc1OC ... 100
CCCC1CO[C@]2(CC[C@@]3(c4ccc(OC)c(OC)c4)CCN(C)C3C2)O1 (stereo partly shown) ... 0

We now examine a further compound.
Q: Query: Condition 1 Conversion (%); subject: `COc1ccc(NC(=O)NN=C2CC[C@@]3(c4ccc(OC)c(OC)c4)CCN(C)[C@H]3C2)cc1`
Result: 91.9

====

Recorded measurements of Condition 1 Conversion (%), second value of pair x/y, one per entry
Type: physicochemical
Settings: SGF with pepsin, pH 1.5, 37° C.; time 1 h; second of two values
Lab book: enter the figure in %, no units written.

The following compounds have reported results that may help.
COc1ccc([C@@]23CC/C(=N\OC(C)(C)OC)C[C@@H]2N(C)CC3)cc1OC ... 100
COc1ccc([C@@]23CC/C(=N/OC(C)(C)OC)C[C@@H]2N(C)CC3)cc1OC ... 100
COc1ccc([C@@]23CCC(=NOC4CCCCO4)C[C@@H]2N(C)CC3)cc1OC (stereo partly shown) ... 2.57

We now examine a further compound.
Q: Query: Condition 1 Conversion (%), second value of pair x/y; subject: `COc1ccc([C@@]23CCC(=NOCC(=O)OC(C)(C)C)C[C@@H]2N(C)CC3)cc1OC`
Result: 0

====

Format: physicochemical
Settings: DI water, 25° C., 0.5 mM; time 24 h
Recorded measurements of Condition 2 Conversion (%), one per entry
Reply with the number, then its unit.

The following compounds have reported results that may help.
COc1ccc([C@@]23CCC(=NNc4ccc(Cl)cc4)C[C@@H]2N(C)CC3)cc1OC ... 0%
COc1ccc([C@@]23CCC(=NOCC(=O)O)C[C@@H]2N(C)CC3)cc1OC ... 0%
COc1ccc([C@@]23CCC(=NNC(=O)Nc4ccc(S(C)(=O)=O)cc4)C[C@@H]2N(C)CC3)cc1OC ... 6%
COc1ccc([C@@]23CCC(=NOCC4CC4)C[C@@H]2N(C)CC3)cc1OC ... 0%
COc1ccc([C@@]23CC/C(=N\NC(=O)CCC(=O)O)C[C@@H]2N(C)CC3)cc1OC ... 100%

Q: Query: Condition 2 Conversion (%); subject: `COc1ccc([C@@]23CCC(OC(C)=O)=C[C@@H]2N(C)CC3)cc1OC`
Result: 0%

Q: Okay, and `COc1ccc([C@@]23CCC(=NNC(C)=O)C[C@@H]2N(C)CC3)cc1OC` ?
Result: 100%

Q: Okay, and `COc1ccc([C@@]23CC/C(=N\NC(=O)Nc4ccccc4Cl)C[C@@H]2N(C)CC3)cc1OC` ?
Result: 24.65%

====

Type: physicochemical
Conditions: DI water, 25° C., 0.5 mM; time 5 min
Recorded measurements of Condition 2 Conversion (%), one per entry
Lab book: enter the figure in %, no units written.

COc1ccc([C@@]23CCC(=NOCC(=O)OC(C)(C)C)C[C@@H]2N(C)CC3)cc1OC ... 0
COc1ccc([C@@]23CCC(=NNc4ccc5ccccc5n4)C[C@@H]2N(C)CC3)cc1OC ... 0
COc1ccc([C@@]23CCC(=NOCc4cccnc4)C[C@@H]2N(C)CC3)cc1OC ... 0
CCON=C1CC[C@@]2(c3ccc(OC)c(OC)c3)CCN(C)[C@H]2C1 ... 0

We now examine a further compound.
Q: Query: Condition 2 Conversion (%); subject: `COc1ccc(NC(=O)NN=C2CC[C@@]3(c4ccc(OC)c(OC)c4)CCN(C)[C@H]3C2)cc1`
Result: 0

====

Settings: 60 min, 5 μM
Readout: Mouse Plasma Compound 001 (%)

The following compounds have reported results that may help.
COc1ccc([C@@]23CCC(OC(=O)c4ccc(F)cc4)=C[C@@H]2N(C)CC3)cc1OC ... 50.6%
COc1ccc([C@@]23CCC(OC(=O)CC(C)C)=C[C@@H]2N(C)CC3)cc1OC ... 68.8%

We now examine a further compound.
Q: Query: Mouse Plasma Compound 001 (%); subject: `COc1ccc([C@@]23CCC(OC(=O)c4ccc(C(C)C)cc4)=C[C@@H]2N(C)CC3)cc1OC`
Result: 30.25%

====

Type: physicochemical
Conditions: SGF with pepsin, pH 1.5, 37° C., 0.5 mM; time 24 h
Readout: Condition 1 Conversion (%)
Lab book: enter the figure in %, no units written.

The following compounds have reported results that may help.
COc1ccc([C@]23CCN(C)[C@H]2CC2(CC3)OCC(c3ccc([N+](=O)[O-])cc3)O2)cc1OC (some centres unmarked) ... 0
COc1ccc([C@@]23CC/C(=N\NC(=O)NCCc4cccs4)C[C@@H]2N(C)CC3)cc1OC ... 100

Q: Query: Condition 1 Conversion (%); subject: `COc1ccc(NC(=O)NN=C2CC[C@@]3(c4ccc(OC)c(OC)c4)CCN(C)[C@H]3C2)cc1`
Result: 92

Q: Okay, and `COc1ccc([C@@]23CCC(=NNC(=O)Nc4cccc(O)c4)C[C@@H]2N(C)CC3)cc1OC` ?
Result: 100

Q: Okay, and COc1ccc([C@@]23CCC(=NNC(=O)CC(CC(=O)O)CC(C)C)C[C@@H]2N(C)CC3)cc1OC (some centres unmarked) ?
Result: 98.34

Q: Okay, and `COc1ccc([C@]23CCN(C)[C@H]2CC2(CC3)OCCO2)cc1OC` ?
Result: 0

Q: Okay, and `COc1ccc([C@@]23CC/C(=N\NC(=O)Nc4ccccc4Cl)C[C@@H]2N(C)CC3)cc1OC` ?
Result: 96.8

Q: Okay, and `COc1ccc([C@]23CCN(C)[C@H]2CC2(CC3)SCCS2)cc1OC` ?
Result: 0

Q: Okay, and `COc1ccc([C@@]23CCC(=NNc4ccc(C(=O)O)cc4)C[C@@H]2N(C)CC3)cc1OC` ?
Result: 46.7

Q: Okay, and COc1ccc([C@]23CCN(C)[C@H]2CC2(CC3)OC[C@H]([C@@H](O)[C@@H](O)Cn3c4nc(=O)[nH]c(=O)c-4nc4cc(C)c(C)cc43)O2)cc1OC (some centres unmarked) ?
Result: 0

Q: Okay, and COc1ccc([C@@]23CC/C(=N/OC45CC6CC(CC(C6)C4)C5)C[C@@H]2N(C)CC3)cc1OC [Compound 301] ?
Result: 100

Q: Okay, and COc1ccc([C@]23CCN(C)[C@H]2CC2(CC3)OCC(C(=O)O)O2)cc1OC (some centres unmarked) ?
Result: 0

Q: Okay, and `COc1ccc([C@@]23CCC(OC(=O)CC(C)C)=C[C@@H]2N(C)CC3)cc1OC` ?
Result: 0

Q: Okay, and `COc1ccc([C@@]23CCC(=NOc4ccccc4)C[C@@H]2N(C)CC3)cc1OC` ?
Result: 7.9

Q: Okay, and `COc1ccc([C@@]23CCC(=NNCc4ccccn4)C[C@@H]2N(C)CC3)cc1OC` ?
Result: 100

Q: Okay, and `COc1ccc([C@@]23CC/C(=N\NC(=O)CCC(=O)O)C[C@@H]2N(C)CC3)cc1OC` ?
Result: 100

Q: Okay, and CCCC1CO[C@]2(CC[C@@]3(c4ccc(OC)c(OC)c4)CCN(C)C3C2)O1 (some centres unmarked) ?
Result: 0

Q: Okay, and `COc1ccc([C@@]23CCC(=NNc4ccc(F)cc4)C[C@@H]2N(C)CC3)cc1OC` ?
Result: 100

Q: Okay, and `COc1ccc([C@@]23CCC(=NOCC4CC4)C[C@@H]2N(C)CC3)cc1OC` ?
Result: 19.3

Q: Okay, and `CCC(=O)OC1=C[C@@H]2N(C)CC[C@]2(c2ccc(OC)c(OC)c2)CC1` ?
Result: 0

Q: Okay, and `COc1ccc([C@@]23CCC(OC(C)=O)=C[C@@H]2N(C)CC3)cc1OC` ?
Result: 0

Q: Okay, and `CO/N=C1\CC[C@@]2(c3ccc(OC)c(OC)c3)CCN(C)[C@H]2C1` ?
Result: 49.9

Q: Okay, and COc1ccc([C@@]23CCC(=NO)C[C@@H]2N(C)CC3)cc1OC (mixture of isomers) ?
Result: 89.5

Q: Okay, and `COc1ccc([C@@]23CCC(=NNC(=O)c4ccc(F)cc4)C[C@@H]2N(C)CC3)cc1OC` ?
Result: 100

Q: Okay, and `C=C(C)C(=O)OC1=C[C@@H]2N(C)CC[C@]2(c2ccc(OC)c(OC)c2)CC1` ?
Result: 0
